- PROTOCOL: Inhibition of Streptococcus pneumoniae NAD-dependent DNA ligase assessed as equilibrium dissociation constant
Values of Kd strictly less than 90 nM map to satisfied, and values of at least 90 nM map to not satisfied.

• CC(C)(C)OC(=O)N1CC(c2nc3nc(N)c(C(N)=O)cc3cc2Br)C1 = not satisfied
• Cc1c(Cc2ccncc2)c(Cl)nc2nc(N)c(C(N)=O)cc12 = not satisfied
• C=CCc1c(Cl)nc2nc(N)c(C(N)=O)cc2c1C = not satisfied
• NC(=O)c1cc2cc(Br)c(C3CCCC3)nc2nc1N = not satisfied
• NC(=O)c1cc2cc(CCc3ccccc3)c(C(F)(F)F)nc2nc1N = not satisfied
• Cc1cc(C(F)(F)F)nc2nc(N)c(C(N)=O)cc12 = satisfied
• NC(=O)c1cc2c(N3CC[C@@H](N)C3)c(Br)c(C(F)(F)F)nc2nc1N = satisfied
• Nc1cc(-c2nc3ccccc3[nH]2)n[nH]c1=O = not satisfied
• CC(C)(C)c1nc2nc(N)c(C(N)=O)cc2cc1Br = satisfied
• NC(=O)c1cc2ccc(C(F)(F)F)nc2nc1N = not satisfied
• NC(=O)c1cc2cc(C3CC3)c(C(F)(F)F)nc2nc1N = satisfied

---

- TARGET DESC: Cytochrome P450 3A4 (Homo sapiens, UniProt P08684)
- Sequence (P08684 whole entry): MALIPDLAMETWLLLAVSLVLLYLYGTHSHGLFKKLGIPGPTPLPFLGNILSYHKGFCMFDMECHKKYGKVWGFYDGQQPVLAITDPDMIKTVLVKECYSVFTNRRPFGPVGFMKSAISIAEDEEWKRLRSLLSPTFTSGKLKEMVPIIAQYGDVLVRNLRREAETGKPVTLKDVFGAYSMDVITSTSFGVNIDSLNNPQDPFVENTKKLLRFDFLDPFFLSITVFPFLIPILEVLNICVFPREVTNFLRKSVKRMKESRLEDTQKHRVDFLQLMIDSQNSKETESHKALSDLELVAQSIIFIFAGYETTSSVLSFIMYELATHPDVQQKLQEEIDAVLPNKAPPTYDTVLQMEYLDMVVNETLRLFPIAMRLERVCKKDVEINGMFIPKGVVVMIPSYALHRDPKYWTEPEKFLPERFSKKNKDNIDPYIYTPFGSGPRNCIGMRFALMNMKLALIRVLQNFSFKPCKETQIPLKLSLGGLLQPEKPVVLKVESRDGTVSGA
MEASURED QUANTITY: IC50

- NC(=O)c1cc2cc(Br)c(C(F)(F)F)nc2nc1N: > 50 µM

---

- PROTOCOL: AUC (0 to 24 hrs) in mouse at 10 mg/kg, sc
- Format: ADME, organism-based
- Parameters: time < 24 hr, dose 10 mg/kg, route subcutaneous
- PROTOCOL CONDITIONS: plasma
MEASURED QUANTITY: AUC(0-t) at 24 h (ng·h/mL)

• NC(=O)c1cc2cc(Br)c(C(F)(F)F)nc2nc1N = 84500

---

- PROTOCOL: Fraction unbound in rat plasma at 0.1 mg/kg, iv and 1 mg/kg, po
- Format: ADME, organism-based
MEASURED QUANTITY: fraction unbound

• NC(=O)c1cc2cc(Br)c(C(F)(F)F)nc2nc1N = 0.14

---

- Test system: Escherichia coli
- PROTOCOL: Antibacterial activity against tolC/rfaC-deficient Escherichia coli harboring ligA251 mutant
- Assay type: functional
Listing of recorded MIC by entry.
MEASURED QUANTITY: MIC (µg/mL)

* NC(=O)c1cc2c3c(c(Cl)nc2nc1N)CC3 | 0.25
* Cc1c(Cc2ccccc2)c(Cl)nc2nc(N)c(C(N)=O)cc12 | 0.125
* NC(=O)c1cc2c(CCO)cc(C(F)(F)F)nc2nc1N | 1
* NCc1cc(C(F)(F)F)nc2nc(N)c(C(N)=O)cc12 | 1
* C=CCc1c(Cl)nc2nc(N)c(C(N)=O)cc2c1C | 0.125
* CC(C)c1cc2cc(C(N)=O)c(N)nc2nc1C(F)(F)F | 1
* Nc1cc(-c2nc3ccccc3[nH]2)n[nH]c1=O | 8
* CC(C)(C)c1nc2nc(N)c(C(N)=O)cc2cc1Br | 0.25
* COc1nc2nc(N)nc(N)c2nc1C | 2
* NC(=O)c1cc2c(-c3ccccc3)cc(C(F)(F)F)nc2nc1N | 0.5
* NC(=O)c1cc2c(N3CC[C@@H](O)C3)c(Br)c(C(F)(F)F)nc2nc1N | 0.125
* Cc1cc2cc(C(N)=O)c(N)nc2nc1C(F)(F)F | 0.063
* NC(=O)c1cc2cc(CO)c(C(F)(F)F)nc2nc1N | 2
* Cc1c(Cc2ccncc2)c(Cl)nc2nc(N)c(C(N)=O)cc12 | 0.25
* NC(=O)c1cc2cc(C3CCCC3)c(C(F)(F)F)nc2nc1N | 4
* NC(=O)c1cc2cc(Cc3ccccc3)c(C(F)(F)F)nc2nc1N | 0.125
* NC(=O)c1cc2ccc(C(F)(F)F)nc2nc1N | 0.125
* CN(CCO)c1c(Br)c(C(F)(F)F)nc2nc(N)c(C(N)=O)cc12 | 0.5
* Cc1cc(C(F)(F)F)nc2nc(N)c(C(N)=O)cc12 | 0.25
* COCCc1cc(C(F)(F)F)nc2nc(N)c(C(N)=O)cc12 | 2
* NC(=O)c1cc2c(N3CCC(O)CC3)c(Br)c(C(F)(F)F)nc2nc1N | 0.25
* NC(=O)c1cc2c(N3CC(O)C3)c(Br)c(C(F)(F)F)nc2nc1N | 0.125
* NC(=O)c1cc2cc(Br)c(C(F)(F)F)nc2nc1N | 0.063
* NC(=O)c1cc2c(N3CC[C@@H](N)C3)c(Br)c(C(F)(F)F)nc2nc1N | 1

---

Listing of recorded MIC by entry.
- System: Haemophilus influenzae
- PROTOCOL: Antibacterial activity against wild type Haemophilus influenzae A921 by CLSI dilution method
- Assay type: functional
MEASURED QUANTITY: MIC (µg/mL)

* CCc1cc2cc(C(N)=O)c(N)nc2nc1C(F)(F)F | 2
* CC(C)c1cc2cc(C(N)=O)c(N)nc2nc1C(F)(F)F | 8
* NC(=O)c1cc2cc(C3CC3)c(C(F)(F)F)nc2nc1N | 0.5
* NC(=O)c1cc2c(N3CC(O)C3)c(Br)c(C(F)(F)F)nc2nc1N | 4
* Cc1c(Cc2ccncc2)c(Cl)nc2nc(N)c(C(N)=O)cc12 | 2
* NC(=O)c1cc2c(N3CC[C@@H](O)C3)c(Br)c(C(F)(F)F)nc2nc1N | 8

---

- PROTOCOL: Terminal half life in rat at 0.1 mg/kg, iv and 1 mg/kg, po
- Type: ADME, organism-based
- PROTOCOL CONDITIONS: in vivo, read-out: beta t1/2 (converted)
MEASURED QUANTITY: half-life (min)

• NC(=O)c1cc2cc(Br)c(C(F)(F)F)nc2nc1N = 138

---

- PROTOCOL: Inhibition of Escherichia coli NAD-dependent DNA ligase
Values of IC50 strictly less than 600 nM map to Yes, and values of at least 600 nM map to No.

- NC(=O)c1cc2cc(CO)c(C(F)(F)F)nc2nc1N: Yes
- NC(=O)c1cc2c(CCO)cc(C(F)(F)F)nc2nc1N: No
- Cc1cc(C(F)(F)F)nc2nc(N)c(C(N)=O)cc12: Yes
- C=Cc1cc2cc(C(N)=O)c(N)nc2nc1C(F)(F)F: Yes
- NC(=O)c1cc2cc(Br)c(C(F)(F)F)nc2nc1N: Yes
- NC(=O)c1cc2cc(CCc3ccccc3)c(C(F)(F)F)nc2nc1N: No
- Cc1c(Cc2ccncc2)c(Cl)nc2nc(N)c(C(N)=O)cc12: No
- Nc1ccc2c(Cl)cc(C(F)(F)F)nc2n1: No
- COCCc1cc(C(F)(F)F)nc2nc(N)c(C(N)=O)cc12: No
- NC(=O)c1cc2ccc(C(F)(F)F)nc2nc1N: Yes
- COc1nc2nc(N)nc(N)c2nc1C: No
- NC(=O)c1cc2cc(C3CC3)c(C(F)(F)F)nc2nc1N: Yes
- CN(CCO)c1c(Br)c(C(F)(F)F)nc2nc(N)c(C(N)=O)cc12: No
- NC(=O)c1cc2c(N3CCC(O)CC3)c(Br)c(C(F)(F)F)nc2nc1N: No
- NC(=O)c1cc2c(-c3ccccc3)cc(C(F)(F)F)nc2nc1N: No
- Nc1cc(-c2nc3ccccc3[nH]2)n[nH]c1=O: No
- NC(=O)c1cc2c(N3CC[C@@H](O)C3)c(Br)c(C(F)(F)F)nc2nc1N: No
- CC(C)(OCc1ccccc1)c1nc2nc(N)c(C(N)=O)cc2cc1Br: No
- CC(C)(C)OC(=O)N1CC(c2nc3nc(N)c(C(N)=O)cc3cc2Br)C1: No
- NCc1cc(C(F)(F)F)nc2nc(N)c(C(N)=O)cc12: No
- NC(=O)c1cc2cc(Br)c(C3CCCC3)nc2nc1N: Yes
- CC(C)(C)c1nc2nc(N)c(C(N)=O)cc2cc1Br: Yes
- Cc1c(Cc2ccccc2)c(Cl)nc2nc(N)c(C(N)=O)cc12: Yes
- NC(=O)c1cc2cc(Cc3ccccc3)c(C(F)(F)F)nc2nc1N: No
- C=CCc1c(Cl)nc2nc(N)c(C(N)=O)cc2c1C: No
- NC(=O)c1cc2c(N3CC[C@@H](N)C3)c(Br)c(C(F)(F)F)nc2nc1N: No
- CC(C)c1cc2cc(C(N)=O)c(N)nc2nc1C(F)(F)F: No
- NC(=O)c1cc2cc(C3CCCC3)c(C(F)(F)F)nc2nc1N: No
- Cc1cc2cc(C(N)=O)c(N)nc2nc1C(F)(F)F: Yes
- NC(=O)c1cc2c(N3CC(O)C3)c(Br)c(C(F)(F)F)nc2nc1N: Yes

Measured values drawn from ChEMBL document CHEMBL2163244 for this set.
